- protocol.notes: qHTS of pediatric cancer cell lines to identify multiple opportunities for drug repurposing: Primary screen for Saos-2 cells (AID 1347097); note: nearly all actives have a fitted effect of over 40% in size
- condition: Saos-2 viability, CellTiter-Glo ATP luminescence, 48 h; series mostly up to 46 µM
Inconclusive results are not listed. The source made the active and inactive calls. Calls come from the whole dose curve; as a rule, active = well fitted cell-killing curve with a large enough effect; inconclusive = small, poorly fitted or top-dose-only effect; inactive = no such curve, though single readings can be large or run the other way.
The categories you may choose from are yes (1) (active), no (0) (inactive)

compound | group
CCOC(=O)C1=C[C@@H](OC(CC)CC)[C@H](NC(C)=O)[C@@H](N)C1 | no (0)

Call for entry CCCCC(CC)COC(=O)C(C#N)=C(c1ccccc1)c1ccccc1 (stereo not drawn) :
no (0)

Call for entry O=C(CCc1ccc(O)cc1)c1c(O)cc(O)cc1O :
no (0)

Call for entry CN(C)C(=O)COC(=O)Cc1ccc(OC(=O)c2ccc(N=C(N)N)cc2)cc1 :
no (0)

Call for entry CCN(CC)CCOc1ccc(Nc2ncc3cc(-c4c(Cl)cccc4Cl)c(=O)n(C)c3n2)cc1 :
yes (1)

Call for entry COCCCN1CCC(NC(=O)c2cc(Cl)c(N)c3c2OCC3)CC1 :
no (0)

Call for entry CNC[C@@H](O)[C@@H](O)[C@H](O)[C@H](O)CO :
no (0)

Call for entry CNC[C@H](O)c1ccc(O)c(O)c1 :
no (0)

Call for entry CC1Cc2ccccc2N1NC(=O)c1ccc(Cl)c(S(N)(=O)=O)c1 (stereo not drawn) :
no (0)

Call for entry COc1ccccc1N1CCN(CCN(C(=O)C2CCCCC2)c2ccccn2)CC1 :
no (0)
